- study.system: P2X7 receptor (Rattus norvegicus, UniProt Q64663)
- Construct: Alveolar macrophages (AM) were recovered from normal rats by bronchoalveolar lavage; endogenous in cells; host or cells: primary alveolar macrophages from male Wistar rats (bronchoalveolar lavage)
- Sequence (Q64663 1-595): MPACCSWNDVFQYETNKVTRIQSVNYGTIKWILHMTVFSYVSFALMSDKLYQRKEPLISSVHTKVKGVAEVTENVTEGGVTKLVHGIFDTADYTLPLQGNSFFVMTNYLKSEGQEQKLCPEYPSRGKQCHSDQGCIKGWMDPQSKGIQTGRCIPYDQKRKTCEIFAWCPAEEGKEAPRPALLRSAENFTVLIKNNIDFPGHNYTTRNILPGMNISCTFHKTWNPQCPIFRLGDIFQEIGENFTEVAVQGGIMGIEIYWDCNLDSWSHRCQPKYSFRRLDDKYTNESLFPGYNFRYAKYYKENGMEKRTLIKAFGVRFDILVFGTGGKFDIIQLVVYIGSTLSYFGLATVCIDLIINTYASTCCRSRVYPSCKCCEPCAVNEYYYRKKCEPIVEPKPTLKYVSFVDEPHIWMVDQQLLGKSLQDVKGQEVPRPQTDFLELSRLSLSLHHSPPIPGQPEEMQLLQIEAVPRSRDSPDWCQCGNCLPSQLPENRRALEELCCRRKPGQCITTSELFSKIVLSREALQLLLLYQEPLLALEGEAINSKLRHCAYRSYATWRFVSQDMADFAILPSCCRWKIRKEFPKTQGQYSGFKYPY
- test.details: ATP-induced membrane permeabilization and pore formation (ethidium bromide uptake) in alveolar macrophages
- Assay type: cell-based
- condition.label: ATP 5 mM, 5 min; compound 10^−9M; rat alveolar macrophages; FIG. 1A
parameter: inhibition of ATP-induced pore formation (ethidium bromide uptake)

substance	result
Cyclic (-Gly-(p-chloro)Phe-Tyr-D-Arg-) (GFYR; HELM PEPTIDE1{G.[O=C([C@H](Cc1ccc(Cl)cc1)N[*:1])[*:2]].Y.[dR]}$PEPTIDE1,PEPTIDE1,1:R1-4:R2$$$V2.0; SMILES N=C(N)NCCC[C@H]1NC(=O)[C@H](Cc2ccc(O)cc2)NC(=O)[C@H](Cc2ccc(Cl)cc2)NC(=O)CNC1=O) [C-10]	inhibited significantly
cyclic (-Gly-Ala-Tyr-D-Arg-) (GAYR; HELM PEPTIDE1{G.A.Y.[dR]}$PEPTIDE1,PEPTIDE1,1:R1-4:R2$$$V2.0; SMILES C[C@@H]1NC(=O)CNC(=O)[C@@H](CCCNC(=N)N)NC(=O)[C@H](Cc2ccc(O)cc2)NC1=O) [C-9]	inhibited significantly
Cyclic (-Gly-Gln-Tyr-D-Arg-) (GQYR; HELM PEPTIDE1{G.Q.Y.[dR]}$PEPTIDE1,PEPTIDE1,1:R1-4:R2$$$V2.0; SMILES N=C(N)NCCC[C@H]1NC(=O)[C@H](Cc2ccc(O)cc2)NC(=O)[C@H](CCC(N)=O)NC(=O)CNC1=O) [C-7]	inhibited significantly
Cyclic (-Gly-D-Gln-Tyr-D-Arg-) (GQYR; HELM PEPTIDE1{G.[dQ].Y.[dR]}$PEPTIDE1,PEPTIDE1,1:R1-4:R2$$$V2.0; SMILES N=C(N)NCCC[C@H]1NC(=O)[C@H](Cc2ccc(O)cc2)NC(=O)[C@@H](CCC(N)=O)NC(=O)CNC1=O) [C-8]	inhibited significantly
